- cond: in cyclohexanone, 308.65 K
attribute-measured: solubility (mole fraction)

Ask: Quick one: solubility (mole fraction) of Cn1cc[n+](CCCC[n+]2ccn(C)c2)c1.F[P-](F)(F)(F)(F)F.F[P-](F)(F)(F)(F)F ?
Result: 0.0041

* * *

- cond: in water, 313.15 K
attribute-measured: solubility (mole fraction)

Ask: Item under review: Cn1cc[n+](CCCC[n+]2ccn(C)c2)c1.F[P-](F)(F)(F)(F)F.F[P-](F)(F)(F)(F)F . Reported solubility (mole fraction)?
Result: 0.000456

* * *

- cond: in acetylacetone, 288.15 K
attribute-measured: solubility (mole fraction)

Ask: GET /values?readout=solubility (mole fraction)&item= Cn1cc[n+](CCCC[n+]2ccn(C)c2)c1.F[P-](F)(F)(F)(F)F.F[P-](F)(F)(F)(F)F
Result: 0.0026

* * *

- cond: in cyclohexanone, 328.15 K
attribute-measured: solubility (mole fraction)
Answers are plain numbers.

Ask: Query: solubility (mole fraction); subject: Cn1cc[n+](CCCC[n+]2ccn(C)c2)c1.F[P-](F)(F)(F)(F)F.F[P-](F)(F)(F)(F)F
Result: 0.0105

* * *

- cond: in 2-butanone, 304.15 K
attribute-measured: solubility (mole fraction)
Numbers only.

Ask: Entry Cn1cc[n+](CCCC[n+]2ccn(C)c2)c1.F[P-](F)(F)(F)(F)F.F[P-](F)(F)(F)(F)F has what solubility (mole fraction)?
Result: 0.0178

* * *

- cond: in 2-butanone, 309.15 K
attribute-measured: solubility (mole fraction)
One number for each entry.

Ask: Tell me the measured solubility (mole fraction) of Cn1cc[n+](CCCC[n+]2ccn(C)c2)c1.F[P-](F)(F)(F)(F)F.F[P-](F)(F)(F)(F)F , please.
Result: 0.0235

* * *

- cond: in cyclohexanone, 318.25 K
attribute-measured: solubility (mole fraction)
Numbers only.

Ask: Look up solubility (mole fraction): Cn1cc[n+](CCCC[n+]2ccn(C)c2)c1.F[P-](F)(F)(F)(F)F.F[P-](F)(F)(F)(F)F
Result: 0.00688

* * *

- cond: in acetophenone, 328.15 K
attribute-measured: solubility (mole fraction)
One number for each entry.

Ask: State the recorded solubility (mole fraction) for this entry: Cn1cc[n+](CCCC[n+]2ccn(C)c2)c1.F[P-](F)(F)(F)(F)F.F[P-](F)(F)(F)(F)F
Result: 0.0117

* * *

- cond: in acetylacetone, 293.15 K
attribute-measured: solubility (mole fraction)
Give bare numbers.

Ask: // query solubility (mole fraction) value for entry Cn1cc[n+](CCCC[n+]2ccn(C)c2)c1.F[P-](F)(F)(F)(F)F.F[P-](F)(F)(F)(F)F
Result: 0.00295

* * *

- cond: in acetophenone, 332.15 K
attribute-measured: solubility (mole fraction)
Give bare numbers.

Ask: Field request: solubility (mole fraction) | item: Cn1cc[n+](CCCC[n+]2ccn(C)c2)c1.F[P-](F)(F)(F)(F)F.F[P-](F)(F)(F)(F)F
Result: 0.0137

* * *

- cond: in 2-butanone, 299.15 K
attribute-measured: solubility (mole fraction)
Answers are plain numbers.

Ask: What does the record list as solubility (mole fraction) for Cn1cc[n+](CCCC[n+]2ccn(C)c2)c1.F[P-](F)(F)(F)(F)F.F[P-](F)(F)(F)(F)F ?
Result: 0.014

* * *

- cond: in cyclohexanone, 283.15 K
attribute-measured: solubility (mole fraction)
Answers are plain numbers.

Ask: Name the recorded solubility (mole fraction) for Cn1cc[n+](CCCC[n+]2ccn(C)c2)c1.F[P-](F)(F)(F)(F)F.F[P-](F)(F)(F)(F)F .
Result: 0.000563

* * *

- cond: in cyclohexanone, 302.15 K
attribute-measured: solubility (mole fraction)

Ask: Report solubility (mole fraction) for Cn1cc[n+](CCCC[n+]2ccn(C)c2)c1.F[P-](F)(F)(F)(F)F.F[P-](F)(F)(F)(F)F please.
Result: 0.00271

* * *

- cond: in acetylacetone, 283.15 K
attribute-measured: solubility (mole fraction)
Numbers only.

Ask: State the recorded solubility (mole fraction) for this entry: Cn1cc[n+](CCCC[n+]2ccn(C)c2)c1.F[P-](F)(F)(F)(F)F.F[P-](F)(F)(F)(F)F
Result: 0.00252

* * *

- cond: in acetylacetone, 325.15 K
attribute-measured: solubility (mole fraction)
One number for each entry.

Ask: Would you kindly share the measured solubility (mole fraction) for Cn1cc[n+](CCCC[n+]2ccn(C)c2)c1.F[P-](F)(F)(F)(F)F.F[P-](F)(F)(F)(F)F ?
Result: 0.0409

* * *

- cond: in water, 293.15 K
attribute-measured: solubility (mole fraction)
One number for each entry.

Ask: Please look up its solubility (mole fraction): Cn1cc[n+](CCCC[n+]2ccn(C)c2)c1.F[P-](F)(F)(F)(F)F.F[P-](F)(F)(F)(F)F
Result: 0.000156

* * *

- cond: in cyclohexanone, 313.15 K
attribute-measured: solubility (mole fraction)

Ask: What does the record list as solubility (mole fraction) for Cn1cc[n+](CCCC[n+]2ccn(C)c2)c1.F[P-](F)(F)(F)(F)F.F[P-](F)(F)(F)(F)F ?
Result: 0.00529

* * *

- cond: in 2-butanone, 283.15 K
attribute-measured: solubility (mole fraction)
One number for each entry.

Ask: solubility (mole fraction) for Cn1cc[n+](CCCC[n+]2ccn(C)c2)c1.F[P-](F)(F)(F)(F)F.F[P-](F)(F)(F)(F)F ?
Result: 0.00838

* * *

- cond: in water, 323.15 K
attribute-measured: solubility (mole fraction)

Ask: Could you share which solubility (mole fraction) value was measured for Cn1cc[n+](CCCC[n+]2ccn(C)c2)c1.F[P-](F)(F)(F)(F)F.F[P-](F)(F)(F)(F)F ?
Result: 0.00079

* * *

- cond: in cyclohexanone, 288.15 K
attribute-measured: solubility (mole fraction)
One number for each entry.

Ask: Which value of solubility (mole fraction) has been reported for Cn1cc[n+](CCCC[n+]2ccn(C)c2)c1.F[P-](F)(F)(F)(F)F.F[P-](F)(F)(F)(F)F in the records?
Result: 0.0009

* * *

- cond: in acetophenone, 299.65 K
attribute-measured: solubility (mole fraction)

Ask: Bench note: what solubility (mole fraction) did Cn1cc[n+](CCCC[n+]2ccn(C)c2)c1.F[P-](F)(F)(F)(F)F.F[P-](F)(F)(F)(F)F show?
Result: 0.00127

* * *

- cond: in acetylacetone, 320.15 K
attribute-measured: solubility (mole fraction)
Give bare numbers.

Ask: Quick check: solubility (mole fraction) of Cn1cc[n+](CCCC[n+]2ccn(C)c2)c1.F[P-](F)(F)(F)(F)F.F[P-](F)(F)(F)(F)F ?
Result: 0.0227

* * *

- cond: in water, 298.15 K
attribute-measured: solubility (mole fraction)
Answers are plain numbers.

Ask: Name the recorded solubility (mole fraction) for Cn1cc[n+](CCCC[n+]2ccn(C)c2)c1.F[P-](F)(F)(F)(F)F.F[P-](F)(F)(F)(F)F .
Result: 0.000203

* * *

- cond: in water, 303.65 K
attribute-measured: solubility (mole fraction)
One number for each entry.

Ask: Please look up its solubility (mole fraction): Cn1cc[n+](CCCC[n+]2ccn(C)c2)c1.F[P-](F)(F)(F)(F)F.F[P-](F)(F)(F)(F)F
Result: 0.000274

* * *

- cond: in water, 308.15 K
attribute-measured: solubility (mole fraction)

Ask: Query (compound): Cn1cc[n+](CCCC[n+]2ccn(C)c2)c1.F[P-](F)(F)(F)(F)F.F[P-](F)(F)(F)(F)F ; field requested: solubility (mole fraction)
Result: 0.000348

* * *

- cond: in acetylacetone, 297.45 K
attribute-measured: solubility (mole fraction)
Answers are plain numbers.

Ask: GET /values?readout=solubility (mole fraction)&item= Cn1cc[n+](CCCC[n+]2ccn(C)c2)c1.F[P-](F)(F)(F)(F)F.F[P-](F)(F)(F)(F)F
Result: 0.00352

* * *

- cond: in cyclohexanone, 298.35 K
attribute-measured: solubility (mole fraction)
Give bare numbers.

Ask: # solubility (mole fraction) lookup, item Cn1cc[n+](CCCC[n+]2ccn(C)c2)c1.F[P-](F)(F)(F)(F)F.F[P-](F)(F)(F)(F)F
Result: 0.00206

* * *

- cond: in 2-butanone, 288.15 K
attribute-measured: solubility (mole fraction)
Answers are plain numbers.

Ask: Given the entry Cn1cc[n+](CCCC[n+]2ccn(C)c2)c1.F[P-](F)(F)(F)(F)F.F[P-](F)(F)(F)(F)F , report its measured solubility (mole fraction).
Result: 0.00936

* * *

- cond: in water, 288.45 K
attribute-measured: solubility (mole fraction)
Give bare numbers.

Ask: // solubility (mole fraction) lookup, key: Cn1cc[n+](CCCC[n+]2ccn(C)c2)c1.F[P-](F)(F)(F)(F)F.F[P-](F)(F)(F)(F)F
Result: 0.000124
